All figures here come from PubChem BioAssay (NCI).

# RUN DESCRIPTION: NCI Yeast Anticancer Drug Screen. Data for the mec2-1 strain (AID 157)
# CONDITION: S. cerevisiae mec2-1 strain, at 50.0 µM, active compounds read high
This is part of a sample that, as a whole, favours compounds with a hit. Of some 79,000 tested, about 15% had one in any assay. The source made the active and inactive calls. Cut-off read from the data, not from the text of the source: active = growth inhibition above about 70%; inactive = the rest.
Each item that follows carries a reported growth inhibition.
RESULT TYPE: growth inhibition

>>> reading("COc1ccc(C(CC(=O)c2ccc(C)cc2)Sc2ccccc2N)cc1 (stereo not drawn)")
"4.5% (inactive)"
>>> reading("COc1ccc(Cc2c(-c3ccc(C)cc3)n[nH]c(=O)c2C2C(=O)N(c3ccccc3)N=C2c2ccccc2)cc1 (stereo not drawn)")
"95.3% (active)"
>>> reading("Nc1ncc(C(=O)c2ccccc2)cc1[N+](=O)[O-]")
"21.8% (inactive)"
>>> reading("OCCC1CCN(CC/C=C2/c3ccc(F)cc3Sc3ccc(C(F)(F)F)cc32)CC1")
"62.9% (inactive)"
>>> reading("[Cl][Sn]([CH2][CH2][Sn]([Cl])([c]1ccccc1)[c]1ccccc1)([c]1ccccc1)[c]1ccccc1")
"92.2% (active)"
>>> reading("CCC(CC)C(c1ccc(O)cc1)c1ccc(O)cc1")
"99.5% (active)"
>>> reading("Cc1ccc2c(c1)-c1c(c3c(c4c1-c1cc(C)ccc1CC4)C(=O)OC3=O)CC2")
"16.7% (inactive)"
>>> reading("O=C(Nc1ccc(Br)cc1)c1cc(Br)c(O)c(Br)c1O")
"98.8% (active)"
>>> reading("CCN(CC)C(=S)Nc1ccc(Cl)cc1")
"97.7% (active)"
>>> reading("CC(C)=NNc1ncnc2nc[nH]c12")
"19.1% (inactive)"
>>> reading("CCCCCCCCCCCCCCC(=O)OCC[N+](C)(C)C")
"93% (active)"
>>> reading("Cc1n(CC(C)C)c2c([n+]1CC(=O)c1ccc([N+](=O)[O-])cc1)C(=O)c1ccccc1C2=O")
"90.7% (active)"
>>> reading("CCOC(=O)/C(C#N)=C\\c1cccc2ccccc12")
"92.3% (active)"
>>> reading("CCCCCCCCCc1cccc(N2C(N)=NC(N)=NC2(C)C)c1")
"99.6% (active)"
>>> reading("CC(=O)Nc1c([N+](=O)[O-])cc2c3c(cccc13)C=C2")
"16.1% (inactive)"
>>> reading("C=C1C(=O)O[C@H]2C3C(=C(C)CC[C@@H]12)C(=O)[C@@H]1OC31C (stereo partly drawn)")
"37.2% (inactive)"
>>> reading("O=C1/C(=C/c2cccc([N+](=O)[O-])c2)CCCc2ccccc21")
"68.8% (inactive)"
>>> reading("c1ccc2c(c1)ccc1ncccc12")
"3.15% (inactive)"
